test system: Lepeophtheirus salmonis; conditions: exposure 60 min, 20 ppm (nitenpyram 19 ppm), culled fish
Please note: true (1) applies when percentage of sea lice that dropped from treated fish at the end of the treatment period is 50% or greater, and false (0) applies otherwise.

>>> qualitative_label("CCN(Cc1ccc(Cl)nc1)/C(=C/[N+](=O)[O-])NC")
"false (0)"

API: the following record is the query input.
Answer whether percentage of sea lice that dropped from treated fish at the end of the treatment period of "CN1COCN(Cc2cnc(Cl)s2)/C1=N\[N+](=O)[O-]" is greater than or equal to 50%.
false (0)

----------
System: Lepeophtheirus salmonis
Conditions: exposure 60 min, 20 ppm (nitenpyram 19 ppm); * only one louse knocked down
Procedure: The fish were acclimatised until normal feeding behaviour resumed, up to a maximum of 10 days, prior to challenge. The fish were housed in 750 litre tanks at a stocking density of no greater than 35 kg/m3. […] Egg strings were harvested from gravid sea lice and incubated in upwelling chambers until nauplii eclosion. […] A 25 mL sample was removed which was then split into 1-2 mL samples in a 24-well plate and the nauplii/copepodids were counted under a stereo microscope. […]
Readout: knockdown times (mean±SEM)

Sample answers from the record:
>>> data_value("CCN(Cc1ccc(Cl)nc1)/C(=C/[N+](=O)[O-])NC [nitenpyram]")
"3600* seconds"
>>> data_value("CN/C(=N\\[N+](=O)[O-])NCc1cnc(Cl)s1 [clothianidin]")
"2289 ± 424 s"
>>> data_value("CN/C(=N/CC1CCOC1)N[N+](=O)[O-] (stereo not shown) [dinotefuran]")
"3109 ± 224 s"

As a next step, examine the molecule that follows.
Field request: knockdown times (mean±SEM) | item: O=[N+]([O-])NC1=NCCN1Cc1ccc(Cl)nc1 [imidacloprid]
1209 ± 235 s

----------
test system: Lepeophtheirus salmonis; conditions: exposure 15 min, 20 ppm (nitenpyram 19 ppm); * only one louse knocked down
Readout: percentage of lice for which their knockdown time equalled that of the exposure time

>>> data_value("CN/C(=N/CC1CCOC1)N[N+](=O)[O-] (stereo not shown) [dinotefuran]")
"100* %"
>>> data_value("CCN(Cc1ccc(Cl)nc1)/C(=C/[N+](=O)[O-])NC [nitenpyram]")
"100* %"

I have 2 compounds here; please give me percentage of lice for which their knockdown time equalled that of the exposure time for each one.
1. CN/C(=N\[N+](=O)[O-])NCc1cnc(Cl)s1 [clothianidin]
2. O=[N+]([O-])NC1=NCCN1Cc1ccc(Cl)nc1 [imidacloprid]

1: 100* %; 2: 28.6%

----------
Answer each item with its documented percentage of sea lice that dropped from treated fish at the end of the treatment period.
test system: Lepeophtheirus salmonis; details: exposure 60 min, 20 ppm (nitenpyram 19 ppm), culled fish
One number for each entry, in %.

See these solved cases before continuing.
>>> data_value("CN/C(=N/CC1CCOC1)N[N+](=O)[O-] (stereo not drawn)")
53.3
>>> data_value("CN/C(=N\\[N+](=O)[O-])NCc1cnc(Cl)s1")
54.5

In the following, a different molecule is considered.
Query (molecule): "O=[N+]([O-])NC1=NCCN1Cc1ccc(Cl)nc1" ; field requested: percentage of sea lice that dropped from treated fish at the end of the treatment period
92.9
